Molecular target: human Hsp90α (Homo sapiens)
Construct: Full-length human recombinant HSP90α was purchased
Assay: Biacore SPR analysis, full-length human Hsp90α
Conditions: SPR, 25 °C, calculated from kinetic constants
pKd: −log10 of the molar value.
Property Label: pKd

> print(dat)
                                 smiles.str  result
1  Nc1ncnc2c1ncn2[C@@H]1O[C@H](COP(=O)(O)OP(=O)(O)O)[C@@H](O)[C@H]1O    4.20

----------
The entries below are paired with their reported ka.
Target: P. falciparum Hsp90 (Plasmodium falciparum)
Assay: biochemical
Type: binding
Conditions: SPR, 25 °C

Molecule	Value Units	ka
Nc1ncnc2c1ncn2[C@@H]1O[C@H](COP(=O)(O)OP(=O)(O)O)[C@@H](O)[C@H]1O [ADP]	M⁻¹ s⁻¹	107
CC(C)c1cc(-c2n[nH]c(=O)n2-c2ccc3c(ccn3C)c2)c(O)cc1O [STA-9090]	M⁻¹ s⁻¹	1.27
CC(C)c1cc(C(=O)N2Cc3ccc(CN4CCN(C)CC4)cc3C2)c(O)cc1O [AT13387]	M⁻¹ s⁻¹	212

----------
Molecular target: P. falciparum Hsp90 (Plasmodium falciparum, UniProt Q8IC05)
Sequence (Q8IC05 entry or part of it): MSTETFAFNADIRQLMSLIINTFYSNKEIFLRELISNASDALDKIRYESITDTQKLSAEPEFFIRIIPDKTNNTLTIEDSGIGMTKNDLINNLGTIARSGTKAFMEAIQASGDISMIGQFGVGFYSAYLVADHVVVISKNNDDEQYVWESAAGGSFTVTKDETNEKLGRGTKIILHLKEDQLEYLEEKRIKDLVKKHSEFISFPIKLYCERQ
Experiment: biochemical
Format: binding
Settings: Kd against the parasite chaperone
pKd: −log10 of the molar value.
Property Label: pKd

> print(dat)
                                   molecule  property.label  result
1  CCNC(=O)c1noc(-c2cc(C(C)C)c(O)cc2O)c1-c1ccc(CN2CCOCC2)cc1 [NVP-AUY922]             pKd    7.88

----------
Each record here notes measured IC50.
System: P. falciparum chloroquine sensitive 3D7
Experiment: Growth inhibition assay (SYBR Green I), 3D7
Details: Plasmodium falciparum, 3D7, 72 h, synchronized ring culture

Compound	IC50
CO[C@H]1/C=C\C=C(/C)C(=O)NC2=CC(=O)C(NCCN(C)C)=C(C[C@@H](C)C[C@H](OC)[C@H](O)[C@@H](C)/C=C(\C)[C@@H]1OC(N)=O)C2=O [17-DMAG]	118 nM
CC(C)NCCCn1c(Sc2cc(Cl)cc(Cl)c2)nc2c(N)ncnc21 [PUWS13]	7000 nM
C[C@H]1[C@@H](O)O[C@@H]2O[C@@]3(C)CC[C@H]4[C@H](C)CC[C@@H]1[C@@]24OO3 [DHA, dihydroartemisinin]	1.2 nM
CCNC(=O)c1noc(-c2cc(C(C)C)c(O)cc2O)c1-c1ccc(CN2CCOCC2)cc1 [NVP-AUY922]	~75 nM
CC(C)c1cc(C(=O)N2Cc3ccc(CN4CCN(C)CC4)cc3C2)c(O)cc1O [AT13387]	665 nM
CC(C)c1cc(-c2n[nH]c(=O)n2-c2ccc3c(ccn3C)c2)c(O)cc1O [STA-9090]	1250 nM
CC1(C)CC(=O)c2c(C(F)(F)F)nn(-c3ccc(C(N)=O)c(N[C@H]4CC[C@H](OC(=O)CN)CC4)c3)c2C1 [SNX-5422]	2140 nM

----------
Molecular target: P. falciparum Hsp90 (Plasmodium falciparum, UniProt Q8IC05)
Experiment: biochemical
Type: binding
Conditions: SPR, 25 °C
Criterion: kd meeting or surpassing 0.002 s⁻¹. Met: TRUE. Not met: FALSE.

Molecule	Class
CC1(C)CC(=O)c2c(C(F)(F)F)nn(-c3ccc(C(N)=O)c(N[C@H]4CC[C@H](O)CC4)c3)c2C1 [SNX-2112]	TRUE
CC(C)c1cc(C(=O)N2Cc3ccc(CN4CCN(C)CC4)cc3C2)c(O)cc1O [AT13387]	TRUE
CC(C)c1cc(-c2n[nH]c(=O)n2-c2ccc3c(ccn3C)c2)c(O)cc1O [STA-9090]	FALSE
CO[C@H]1/C=C\C=C(/C)C(=O)NC2=CC(=O)C(NCCN(C)C)=C(C[C@@H](C)C[C@H](OC)[C@H](O)[C@@H](C)/C=C(\C)[C@@H]1OC(N)=O)C2=O [17-DMAG]	FALSE
CC(C)NCCCn1c(Sc2cc(Cl)cc(Cl)c2)nc2c(N)ncnc21 [PUWS13]	TRUE

----------
Molecular target: P. falciparum Hsp90 (Plasmodium falciparum, UniProt Q8IC05)
Assay: biochemical
Type: binding
Settings: SPR, 25 °C
Entries and their ka
Property Label: ka

> print(dat)
                                 smiles.str                            assayed.system        result
1  CC(C)NCCCn1c(Sc2cc(Cl)cc(Cl)c2)nc2c(N)ncnc21  P. falciparum Hsp90 (Plasmodium falciparum, UniProt Q8IC05)  598,000 1/Ms
2  CC1(C)CC(=O)c2c(C(F)(F)F)nn(-c3ccc(C(N)=O)c(N[C@H]4CC[C@H](O)CC4)c3)c2C1  P. falciparum Hsp90 (Plasmodium falciparum, UniProt Q8IC05)   20,300 1/Ms
3  CO[C@H]1/C=C\C=C(/C)C(=O)NC2=CC(=O)C(NCCN(C)C)=C(C[C@@H](C)C[C@H](OC)[C@H](O)[C@@H](C)/C=C(\C)[C@@H]1OC(N)=O)C2=O  P. falciparum Hsp90 (Plasmodium falciparum, UniProt Q8IC05)  208,000 1/Ms
